ASSAY_NAME: method code SF, from Hansch, C. & Leo, A. (1987). Log P database [Dataset]. Pomona College Medicinal Chemistry Project.
CONDITION_PARAMETERS: pH 7.4
Reported logD values for the following compounds.

Note logD for the compound shown: `COc1ccccc1/N=N/N(C)C`
2.34

Note logD for the compound shown: `CCN(CC)c1c(C)n(-c2ccccc2)c(=O)n(C)c1=O`
2.19

Note logD for the compound shown: `O=c1cn[nH]c(=O)[nH]1`
-1.37

====

ASSAY_NAME: method code SF, from Hansch, C. & Leo, A. (1987). Log P database [Dataset]. Pomona College Medicinal Chemistry Project.
Reported logP values for the following compounds.
Answer with the value's number alone.

Below: 5 compounds and their reported logP.
CC1(C)O[C@@H]2C[C@H]3[C@@H]4C[C@H](F)C5=CC(=O)C=C[C@]5(C)[C@@]4(F)[C@@H](O)C[C@]3(C)[C@]2(C(=O)CO)O1 :: 2.48
C[C@]12CCC(=O)C=C1CC[C@@H]1[C@@H]2CC[C@]2(C)C(=O)CC[C@@H]12 :: 2.75
CCC(C)C(=O)Nc1ccc(Cl)c(Cl)c1 (stereo unspecified) :: 4.11
CN(C)C(=O)Cc1ccsc1 :: 0.65
CCCCC(=O)Nc1ccc(Cl)c(Cl)c1 :: 4.17

Note logP for the compound shown: `CS(=O)(=O)Oc1ccccc1`
1.25

Note logP for the compound shown: `Cc1ccc([N+]([O-])=NC#N)cc1`
2.39

Note logP for the compound shown: `CCOCCOC(=O)C(C#N)=C(CC)Nc1ccc([N+](=O)[O-])cc1`
2.6

Note logP for the compound shown: CCCCCN(CCCCC)/N=C/c1c2c(O)c3c(O)c(C)c4c(c3c1O)C(=O)C(C)(O/C=C\C(OC)C(C)C(OC(C)=O)C(C)C(O)C(C)C(O)C(C)/C=C\C=C(C)C(=O)N2)O4 (stereo unspecified)
3.47

Note logP for the compound shown: `CNc1nc2ccccc2o1`
1.82

Note logP for the compound shown: `CN(C)C(=O)Cc1ccco1`
0.01

====

ASSAY_NAME: method code SF, from Hansch, C. & Leo, A. (1987). Log P database [Dataset]. Pomona College Medicinal Chemistry Project.
CONDITION_PARAMETERS: pH 1.4
READOUT_NAME: logD

Oc1c(Br)cc(Br)c(O)c1Br :: 4.37

From here, focus on the item given below.
Note logD for the molecule shown: `Oc1cc(O)cc(O)c1`
0.16

====

Reported logP values for the following molecules.
ASSAY_NAME: method code SF, from Hansch, C. & Leo, A. (1987). Log P database [Dataset]. Pomona College Medicinal Chemistry Project.

CC(=O)c1ccccc1OC(=O)N(C)C :: 0.93
C=CCNC(=O)NCC=C :: 0.64
O=NN(CCCl)C(=O)NC(C(=O)O)C1CCCCC1 (stereo unspecified) :: -0.63
O=C(O)CCCc1c[nH]c2ccccc12 :: 2.3
CCCCSC(C)(C)C(N)=O :: 1.81

Note logP for the molecule shown: CCN(CC)C(C)CN1c2ccccc2Sc2ccccc21 (stereo unspecified)
4.77

Note logP for the molecule shown: `CCOP(=O)(OCC)Oc1ccc(SC)cc1Cl`
3.05

Note logP for the molecule shown: `Cc1nnc(SCc2ccccc2)s1`
2.35

Note logP for the molecule shown: `NC(=O)c1cccc(O)c1`
0.39

====

ASSAY_NAME: method code SF, from Hansch, C. & Leo, A. (1987). Log P database [Dataset]. Pomona College Medicinal Chemistry Project.
Doc: threshold 3 (exclusive). Items with logP beneath it return 1.0; others return 0.0.

O=NN(CCCl)C(=O)NC12CC3CC(CC(C3)C1)C2 :: 0.0
CN(C(=O)CCS(C)=O)c1ccc(S(=O)(=O)N(C)C)cc1 (stereo unspecified) :: 1.0
Nc1cccc2cc3ccccc3nc12 :: 0.0

Lab note: logP threshold 3. Does this compound come in strictly under it? `CC(=O)Oc1cccc([N+](=O)[O-])c1`
1.0

Lab note: logP threshold 3. Does this compound come in strictly under it? `COc1ccc2[nH]c(CCCc3nc4cc(OC)ccc4[nH]3)nc2c1`
1.0

Lab note: logP threshold 3. Does this compound come in strictly under it? `CC(C)CN(CC(C)C)C(=O)C=Cc1ccc2c(c1)OCO2`
0.0

====

ASSAY_NAME: method code SF, from Hansch, C. & Leo, A. (1987). Log P database [Dataset]. Pomona College Medicinal Chemistry Project.
Give Met when the value for logP is at least 2. Give Not met when it is less.

As a guide, the following entries are already answered.
CC(=O)c1ccccc1Cl :: Met
O=C(O)c1ccsc1 :: Not met
O=c1cnn([C@@H]2O[C@H](CO)[C@@H](O)[C@H]2O)c(=O)[nH]1 :: Not met
COc1cn[nH]c1 :: Not met

Continue with the molecule presented below.
State whether the measured logP reaches 2, counting equality as reaching it, for `Cc1ccoc1CN(C)C`
Not met

====

ASSAY_NAME: method code SF, from Hansch, C. & Leo, A. (1987). Log P database [Dataset]. Pomona College Medicinal Chemistry Project.
Doc: threshold 1 (exclusive). Items with logP beneath it return fulfilled; others return not fulfilled.

As a guide, the following entries are already answered.
CCOC(=O)/C(=C/c1c(Cl)cccc1Cl)C(C)=O :: not fulfilled
CCCC=O :: fulfilled
CC(=O)OCC(=O)[C@@]12OC(C)(C)O[C@@H]1C[C@H]1[C@@H]3C[C@H](F)C4=CC(=O)C=C[C@]4(C)[C@@]3(F)[C@@H](O)C[C@@]12C :: not fulfilled
CC1=Nc2cc(N)c(Cl)cc2S(=O)(=O)N1 :: fulfilled
NNC(=O)c1ccncc1 :: fulfilled
OCc1cccc(C(F)(F)F)c1 :: not fulfilled

Continue with the compound presented below.
Lab note: logP threshold 1. Does this compound come in strictly under it? CCCCC1OC(=O)c2cc(N(CCO)CCO)ccc21 (centres undefined)
not fulfilled

====

ASSAY_NAME: method code SF, from Hansch, C. & Leo, A. (1987). Log P database [Dataset]. Pomona College Medicinal Chemistry Project.
CONDITION_PARAMETERS: pH 6.6
READOUT_NAME: logD
Answer with the value's number alone.

Note logD for the molecule shown: CON=C(C(=O)NC1C(=O)N2C(C(=O)OCOC(=O)C(C)(C)C)=C(CSc3nnnn3C)CSC12)c1csc(N)n1 (stereo unspecified)
1.74

====

ASSAY_NAME: method code SF, from Hansch, C. & Leo, A. (1987). Log P database [Dataset]. Pomona College Medicinal Chemistry Project.
Reported logP values for the following compounds.
Answer with the value's number alone.

Below: 2 compounds and their reported logP.
C/N=C/c1ccccc1 :: 1.64
c1cnc2nccnc2c1 :: -0.04

Note logP for the compound shown: `CC(=O)N(c1ccccc1)S(C)(=O)=O`
0.29

Note logP for the compound shown: `CCOC(=O)C(=Cc1ccc([N+](=O)[O-])cc1)C(=O)OCC`
3.03

Note logP for the compound shown: `O=c1[nH]nnc2ccccc12`
0.83

Note logP for the compound shown: `OCCOCCN1CCN(CCCN2c3ccccc3Sc3ccc(C(F)(F)F)cc32)CC1`
4.49

Note logP for the compound shown: `CN(C)CCN(C)C`
0.3

====

ASSAY_NAME: method code SF, from Hansch, C. & Leo, A. (1987). Log P database [Dataset]. Pomona College Medicinal Chemistry Project.
Measured logP determines class: lower level: < 1; middle level: ≥ 1 and < 3; upper level: ≥ 3

As a guide, the following entries are already answered.
O=C(O)c1cc(=O)c2cc3c(cc2o1)CCCC3 :: upper level
NN=C(c1ccccc1)c1ccccc1 :: middle level
C[C@@H]1C[C@@H]([C@H](O)CC2CC(=O)NC(=O)C2)C(=O)[C@@H](C)C1 :: lower level
CCNP(=O)(OC)Oc1cc(Cl)c(Cl)cc1Cl (stereo unspecified) :: upper level
O=S1(=O)NC(Cc2ccccc2)=Nc2ccccc21 :: middle level
O=C(Nc1ccc(Cl)c(Cl)c1)C1CCCC1 :: upper level

Which class does `CN(C)c1cnnc(N(C)C)c1` fall in?
lower level

Which class does CCC(C)c1ccccc1OC(=O)N(C)C (stereo unspecified) fall in?
upper level

Which class does `CCCOc1cccc(C=C(C(C)=O)C(=O)OCC)c1` fall in?
upper level

Which class does `C#CC(C)(C)O` fall in?
lower level

====

ASSAY_NAME: method code SF, from Hansch, C. & Leo, A. (1987). Log P database [Dataset]. Pomona College Medicinal Chemistry Project.
Measured logP determines class: low class (below 0.5), middle class (0.5 to below 3), high class (3 or more)

C=CC=O :: low class
O=C(CCl)Nc1ccccc1 :: middle class
C/C=C/c1ccccc1 :: high class
CCCCCCCCC1OC(=O)c2ccccc21 (stereo unspecified) :: high class
c1nc[nH]n1 :: low class
N#Cc1ccc(C(N)=O)cc1 :: low class
CC(=O)OCCOC(=O)c1ccccc1 :: middle class
CC(=O)N(C)/N=N/c1ccc(F)cc1 :: middle class
O=S1(=O)NC(C(Cl)Cl)=Nc2cc(Cl)ccc21 :: middle class
S=C=Nc1ccccc1 :: high class

Which class does `NC(=O)c1ccc(N)cc1` fall in?
low class

Which class does `C(#Cc1ccccc1)c1ccccc1` fall in?
high class

Which class does `CN(Cc1ccc(C#N)cc1)/N=N/c1ccc(C(=O)O)cc1` fall in?
high class
